SYSTEM_TESTED: N-formyl peptide receptor 2 (Homo sapiens, UniProt P25090)
Sequence (P25090 whole entry): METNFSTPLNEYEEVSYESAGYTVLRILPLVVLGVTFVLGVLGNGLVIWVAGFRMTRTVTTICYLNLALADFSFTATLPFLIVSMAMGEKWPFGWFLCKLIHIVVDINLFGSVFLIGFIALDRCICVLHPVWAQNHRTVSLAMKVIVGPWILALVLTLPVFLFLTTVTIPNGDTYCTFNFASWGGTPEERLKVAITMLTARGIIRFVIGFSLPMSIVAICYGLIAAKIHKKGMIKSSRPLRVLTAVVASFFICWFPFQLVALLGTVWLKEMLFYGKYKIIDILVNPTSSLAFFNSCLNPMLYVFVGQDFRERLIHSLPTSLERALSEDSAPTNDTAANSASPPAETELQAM
PROTOCOL_DETAILS: Antagonist activity at human FPR2 transfected in human HL-60 cells assessed as inhibition of WKYMVM-induced intracellular calcium mobilization preincubated for 10 mins followed by WKYMVM addition measured every 5 seconds for 240 secs by Fluo-4-AM dye based fluorescence assay
Listing of entries alongside the reported IC50.
Enter your answer as a number in µM; do not include the unit.

Use the examples below as a reference point.
[
  {
    "SMILES_NOTATION": "N#Cc1ccc(C[C@@H](NC(=O)Nc2ccc(F)cc2)C(=O)N2CCCC2)cc1",
    "READOUT_TYPE": "IC50",
    "UNIT_OF_MEASURE": "µM",
    "TEST_RESULT": 16.5
  },
  {
    "SMILES_NOTATION": "N#Cc1ccc(C[C@H](NC(=O)Nc2ccc(F)cc2)C(=O)N2CCc3ccccc32)cc1",
    "READOUT_TYPE": "IC50",
    "UNIT_OF_MEASURE": "µM",
    "TEST_RESULT": 0.01
  },
  {
    "SMILES_NOTATION": "N#Cc1ccc(C[C@H](NC(=O)Nc2ccc(F)cc2)C(=O)N2CCC(F)(F)CC2)cc1",
    "READOUT_TYPE": "IC50",
    "UNIT_OF_MEASURE": "µM",
    "TEST_RESULT": 30.1
  },
  {
    "SMILES_NOTATION": "CC1(C)CN(C(=O)[C@H](Cc2ccc(C#N)cc2)NC(=O)Nc2ccc(F)cc2)Cc2cc(F)ccc21",
    "READOUT_TYPE": "IC50",
    "UNIT_OF_MEASURE": "µM",
    "TEST_RESULT": 0.6
  },
  {
    "SMILES_NOTATION": "N#Cc1ccc(C[C@H](NC(=O)Nc2ccc(F)cc2)C(=O)N2CCCC2)cc1",
    "READOUT_TYPE": "IC50",
    "UNIT_OF_MEASURE": "µM",
    "TEST_RESULT": 6.4
  }
]

# input Tell me the measured IC50 of N#Cc1ccc(C[C@H](NC(=O)Nc2ccc(F)cc2)C(=O)N2CCc3cccnc32)cc1 , please.
# output 0.14

# input Tell me the measured IC50 of N#Cc1ccc(C[C@@H](NC(=O)Nc2ccc(F)cc2)C(=O)N2CCc3cc(F)ccc32)cc1 , please.
# output 3.4

# input Tell me the measured IC50 of N#Cc1ccc(C[C@@H](NC(=O)Nc2ccc(F)cc2)C(=O)N2CCCCC2)cc1 , please.
# output 49.3

# input Tell me the measured IC50 of N#Cc1ccc(C[C@@H](NC(=O)Nc2ccc(F)cc2)C(=O)N2CCc3ccccc3C2)cc1 , please.
# output 3.5

# input Tell me the measured IC50 of CC1(C)CN(C(=O)[C@H](Cc2ccc(C#N)cc2)NC(=O)Nc2ccc(F)cc2)c2ccccc21 , please.
# output 2.7

# input Tell me the measured IC50 of N#Cc1ccc(C[C@@H](NC(=O)Nc2ccc(F)cc2)C(=O)N2CCCc3ccccc32)cc1 , please.
# output 0.012

###

PROTOCOL_DETAILS: Clast in CD-1 mouse at 1 mg/kg, iv measured upto 4 hrs by UPLC analysis
Format: ADME, organism-based
RUN_CONDITIONS: in vivo, read-out: Clast
READOUT_TYPE: concentration at 4 h
Please make sure the unit comes right after the number.

# input Tell me the measured concentration at 4 h of N#Cc1ccc(C[C@H](NC(=O)Nc2ccc(F)cc2)C(=O)N2CCc3ccc(F)cc32)cc1 , please.
# output 14.1 ng/mL

###

Listing of entries alongside the reported Activity.
PROTOCOL_DETAILS: Cytotoxicity against mouse N9 cells assessed as reduction in cell viability at 1 to 100 uM incubated for 48 hrs by MTT assay relative to control
Format: toxicity, cell-based
RUN_CONDITIONS: n9, 48 h, dose 1-100 µM
Enter your answer as a number in %; do not include the unit.

Use the examples below as a reference point.
[
  {
    "COMPOUND": "N#Cc1ccc(C[C@H](NC(=O)Nc2ccc(F)cc2)C(=O)N2CCC(F)(F)CC2)cc1",
    "Activity / %": 9
  },
  {
    "COMPOUND": "N#Cc1ccc(C[C@@H](NC(=O)Nc2ccc(F)cc2)C(=O)N2CCC(F)(F)CC2)cc1",
    "Activity / %": 40
  },
  {
    "COMPOUND": "N#Cc1ccc(C[C@@H](NC(=O)Nc2ccc(F)cc2)C(=O)N2CCCC2)cc1",
    "Activity / %": 59
  },
  {
    "COMPOUND": "N#Cc1ccc(C[C@@H](NC(=O)Nc2ccc(F)cc2)C(=O)NC2CCCCNC2=O)cc1 (stereo partly specified)",
    "Activity / %": 36
  },
  {
    "COMPOUND": "N#Cc1ccc(C[C@H](NC(=O)Nc2ccc(F)cc2)C(=O)NC2CCCCNC2=O)cc1 (stereo partly specified)",
    "Activity / %": 53
  }
]

Switching to the query record.
# input Tell me the measured Activity of N#Cc1ccc(C[C@H](NC(=O)Nc2ccc(F)cc2)C(=O)N2CCCC2)cc1 , please.
# output 55

###

Listing of entries alongside the reported EC50 at 48 h.
PROTOCOL_DETAILS: Cytotoxicity against mouse N9 cells assessed as reduction in cell viability incubated for 48 hrs by MTT assay
Assay type: toxicity, cell-based
Enter your answer as a number in µM; do not include the unit.

Use the examples below as a reference point.
[
  {
    "SMILES_NOTATION": "N#Cc1ccc(C[C@@H](NC(=O)Nc2ccc(F)cc2)C(=O)N2CCc3cc(F)ccc32)cc1",
    "TEST_RESULT": 23.8
  },
  {
    "SMILES_NOTATION": "N#Cc1ccc(C[C@@H](NC(=O)Nc2ccc(F)cc2)C(=O)N2CCCc3ccccc32)cc1",
    "TEST_RESULT": 13.7
  },
  {
    "SMILES_NOTATION": "N#Cc1ccc(C[C@H](NC(=O)Nc2ccc(F)cc2)C(=O)NCC2(c3ccc(F)c(Cl)c3)CC2)cc1",
    "TEST_RESULT": 3.26
  }
]

# input Tell me the measured EC50 at 48 h of N#Cc1ccc(C[C@H](NC(=O)Nc2ccc(F)cc2)C(=O)N2Cc3ccc(F)cc3C2)cc1 , please.
# output 18.2

# input Tell me the measured EC50 at 48 h of N#Cc1ccc(C[C@H](NC(=O)Nc2ccc(F)cc2)C(=O)N2CCCc3ccccc32)cc1 , please.
# output 14.7

# input Tell me the measured EC50 at 48 h of N#Cc1ccc(C[C@@H](NC(=O)Nc2ccc(F)cc2)C(=O)N2Cc3ccc(F)cc3C2)cc1 , please.
# output 9.44

# input Tell me the measured EC50 at 48 h of N#Cc1ccc(C[C@H](NC(=O)Nc2ccc(F)cc2)C(=O)N2CCc3cc(F)ccc32)cc1 , please.
# output 29.4

###

PROTOCOL_DETAILS: Metabolic stability in rat liver microsomes assessed as compound remaining at 10 uM preincubated for 10 mins followed by NADPH addition and measured after 30 mins by HPLC analysis
Type: ADME, Microsome
RUN_CONDITIONS: time 40 min, read-out: Stability
Listing of entries alongside the reported remaining at 0.5 h, 10 µM.
Enter your answer as a number in %; do not include the unit.

Use the examples below as a reference point.
[
  {
    "MOLECULE": "N#Cc1ccc(C[C@@H](NC(=O)Nc2ccc(F)cc2)C(=O)N2CCc3ccccc3C2)cc1",
    "remaining at 0.5 h, 10 µM [%]": 4
  },
  {
    "MOLECULE": "N#Cc1ccc(C[C@@H](NC(=O)Nc2ccc(F)cc2)C(=O)N2CCCc3ccccc32)cc1",
    "remaining at 0.5 h, 10 µM [%]": 7
  }
]

# input Tell me the measured remaining at 0.5 h, 10 µM of N#Cc1ccc(C[C@@H](NC(=O)Nc2ccc(F)cc2)C(=O)N2CCCCC2)cc1 , please.
# output 25

# input Tell me the measured remaining at 0.5 h, 10 µM of N#Cc1ccc(C[C@@H](NC(=O)Nc2ccc(F)cc2)C(=O)N2CCc3ccccc32)cc1 , please.
# output 14

# input Tell me the measured remaining at 0.5 h, 10 µM of N#Cc1ccc(C[C@@H](NC(=O)Nc2ccc(F)cc2)C(=O)N2Cc3ccccc3C2)cc1 , please.
# output 15

# input Tell me the measured remaining at 0.5 h, 10 µM of CC1(C)CN(C(=O)[C@H](Cc2ccc(C#N)cc2)NC(=O)Nc2ccc(F)cc2)Cc2cc(F)ccc21 , please.
# output 34

# input Tell me the measured remaining at 0.5 h, 10 µM of N#Cc1ccc(C[C@@H](NC(=O)Nc2ccc(F)cc2)C(=O)N2CCC(F)(F)CC2)cc1 , please.
# output 62

# input Tell me the measured remaining at 0.5 h, 10 µM of N#Cc1ccc(C[C@H](NC(=O)Nc2ccc(F)cc2)C(=O)N2CCc3ccccc3C2)cc1 , please.
# output 6

# input Tell me the measured remaining at 0.5 h, 10 µM of N#Cc1ccc(C[C@H](NC(=O)Nc2ccc(F)cc2)C(=O)N2CCc3cccnc32)cc1 , please.
# output 14
